Tested on: HEK293T
Test: median enrichment of reporter reads in eGFP-reduced (low/intermediate) vs eGFP-high sorted cells (eGFP-extension fusion abundance) (ratio); higher = stronger loss of eGFP-fusion protein abundance (more destabilising extension)
recorded.metric: median enrichment
Number only, please.

Here are 2 sequences together with their reported answers.
>>> reported_value("WEKQAKEKSVTVPL [KIDINS220]")
0.839
>>> reported_value("KKVGRARPCQRG [Degron KLHDC3]")
6.66

// moving on: another record for median enrichment
Which median enrichment reading was recorded for the sequence WRSCAAQSQTPAPTTYFCYTQEHFRKLSQLIFCFSSMSILSVSHFEDFFSLLYLCFSFFGFYFVVLSVIFNVPKICTCSIKNV [HOOK3] ?
2.08

----------
Listing: median enrichment of selected substances
Test system: HEK293T
Experiment: median enrichment of reporter reads in eGFP-reduced (low/intermediate) vs eGFP-high sorted cells (eGFP-extension fusion abundance) (ratio); higher = stronger loss of eGFP-fusion protein abundance (more destabilising extension)
Format: numeric value only, no unit, no commentary.

Take a look at these entries with their results.
>>> reported_value("SFHLLKPAYFRTLRLTVFSLLMMSSC [PIK3AP1]")
11.1
>>> reported_value("LLLPADLWIRSLLTGCVTLGPELPLSGPQRPYEGPLLQEHPHDIAFGGAPVACRIACGLCNLLRFKTDGHMCQWGSLSPGPKK [JAK3]")
5.04

Proceeding to the next substance to report its median enrichment.
Report median enrichment for CSDVPFIYNNVKCNCLVP [TCP1] tested on HEK293T.
4.71

----------
System: HEK293T
Experiment: median enrichment of reporter reads in eGFP-reduced (low/intermediate) vs eGFP-high sorted cells (eGFP-extension fusion abundance) (ratio); higher = stronger loss of eGFP-fusion protein abundance (more destabilising extension)
Consider the following substances and their measured median enrichment readings.
Lab note: record the figure alone, no unit after it.

# example entries with known answers
>>> reported_value("SVVPLFH [KIF22]")
0.762
>>> reported_value("YDVQRRLNKCTAE [VPS33A]")
0.744
>>> reported_value("QWPHPHWAQARRGPAHAHTTGQGCGAGAIPAPFPGPRGLGSLPSHPGLVPPGAPTVEIRRGWNGGRGGAGGPHPSAALGLGPH [GNB2]")
7.88

Form field: reported median enrichment of SFFFPSAS [KAT2B]
2.2

Now try SRPWSESAPVGILPPPCWPPFSPQPLR [PGAP3] .
14.1

Further, for KKKEKKAKKKK [IQCA1] ?
0.903

Field entry: YQGPLDL [OR56A3]
0.714

Param item: RQRPPAPALPQPSY [SART1]
0.558

What would you report for ELQQKNLHCYIRYRYKMQKKHQEFCLLFYFIFKLQEVFSSWDNLVLLLSIICQFLCILNKINIELK [WDR49] ?
2.64

Then what about the substance PEPGWGISAGQRRRLSQLFPDIQGHCSLLPSRTSLLPPTMAGGEQVSQKHPVPRMVLCACPSLLGLPFPLLREDVSLLTCTLA [KIRREL1] ?
4.27

Follow-up item: QKPYEYCEYGKAI [ZNF569]
0.563

----------
Consider the following substances and their measured median enrichment readings.
Tested on: HEK293T;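 note: lentiviral eGFP-IRES-mCherry reporter pool sorted by FACS 96 h post-transduction, gated on mCherry-high cells, Illumina read counts normalized per million, median across four biological replicates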
Assay: median enrichment of reporter reads in eGFP-reduced (low/intermediate) vs eGFP-high sorted cells (eGFP-extension fusion abundance) (ratio); higher = stronger loss of eGFP-fusion protein abundance (more destabilising extension)

>>> reported_value("QCVSRCQ [SPG21]")
0.894
>>> reported_value("SLIRLAT [AK6]")
9.3
>>> reported_value("LNRKKSPK [MDN1]")
0.34
>>> reported_value("RGPSETVYALTST [KDELR3]")
1.55
>>> reported_value("SRATGPQQCEGSLAAHPAAGAQPLPGMRLSADGETATQSFGLCVCVCVCVCVCAHPRVPVCVRILPPGAEVPWVSPLLCNGLL [FGFR3]")
6.49

Item YKCEECGKAFKWSSHLTIH [ZNF93] with HEK293T - median enrichment?
6.32

Try the substance WIPQGTTEAKELEVFSRGTDGLRALMMLPEVCKSFMS [LOR]
10.9

Ok, now LWLSCLQYLNFKSKSIY [IFNG]
13.2

Another substance to look at: RAQLLRAQTPA [TNK1]
1.82

Same read-out for QQQQQQQ [Gln07] ?
0.347
